Biological target: AXL (phospho-AXL, Gas6-stimulated A-172 glioblastoma cells) (Homo sapiens (Human), UniProt P30530)
Sequence (P30530 26-894): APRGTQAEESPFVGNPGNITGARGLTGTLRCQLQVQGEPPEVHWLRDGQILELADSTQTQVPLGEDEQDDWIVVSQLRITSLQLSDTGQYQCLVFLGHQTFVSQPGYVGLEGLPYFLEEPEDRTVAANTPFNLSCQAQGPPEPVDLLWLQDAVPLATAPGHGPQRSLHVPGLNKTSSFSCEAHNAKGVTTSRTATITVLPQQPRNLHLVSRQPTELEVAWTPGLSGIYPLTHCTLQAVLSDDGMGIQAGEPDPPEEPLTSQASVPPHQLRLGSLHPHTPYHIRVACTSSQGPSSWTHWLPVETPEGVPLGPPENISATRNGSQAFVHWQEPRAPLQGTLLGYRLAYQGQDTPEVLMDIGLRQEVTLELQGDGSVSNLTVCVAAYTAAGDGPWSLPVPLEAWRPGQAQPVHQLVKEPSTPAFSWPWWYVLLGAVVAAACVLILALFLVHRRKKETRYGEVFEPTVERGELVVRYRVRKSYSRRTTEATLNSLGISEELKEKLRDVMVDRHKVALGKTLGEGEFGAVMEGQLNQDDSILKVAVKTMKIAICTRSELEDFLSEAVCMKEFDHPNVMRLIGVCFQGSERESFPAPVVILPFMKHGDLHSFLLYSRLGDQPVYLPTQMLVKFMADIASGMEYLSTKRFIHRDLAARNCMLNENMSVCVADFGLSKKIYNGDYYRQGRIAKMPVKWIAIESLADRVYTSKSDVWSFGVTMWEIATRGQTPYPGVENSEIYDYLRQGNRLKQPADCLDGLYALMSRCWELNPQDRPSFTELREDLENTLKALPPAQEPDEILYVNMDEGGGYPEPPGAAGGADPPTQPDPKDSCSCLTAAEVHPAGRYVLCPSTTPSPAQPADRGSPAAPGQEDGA
Test: AXL autophosphorylation ELISA in A-172 cells (Example E)
Assay type: cell-based
Details: cellular activity; AXL autophosphorylation ELISA in A-172 cells; read-out: Axl IC50
pIC50: −log10 of the molar value.
Overview of reported pIC50 across a group of compounds:

Answered examples (3):
Any idea what its pIC50 is? The compound is COc1cnc2c(Oc3c(F)cc(NC(=O)c4c(C)nc(C)c(-c5ccc(F)cc5C)c4O)cc3F)ccnc2c1 [Compound 767] > 7.00

Any idea what its pIC50 is? The compound is COc1cnc2c(Oc3ccc(NC(=O)c4c(C)c(Br)c(C)n(-c5ccc(F)cc5)c4=O)cc3F)ccnc2c1 [Compound 314] > 7.00

Any idea what its pIC50 is? The compound is COc1cc2nccc(Oc3ccc(NC(=O)c4c(C)c(C)nn(-c5ccc(F)cc5)c4=O)cc3)c2nc1OC [Compound 732] > 7.00

---
Any idea what its pIC50 is? The compound is COc1ccc(-c2c(C)ncc(C(=O)Nc3ccc(Oc4ccnc5cc(OC)cnc45)c(F)c3)c2O)c(F)c1 [Compound 700] < 6.52

----------
Target: Human KDR (residues 790-1356) (Homo sapiens (Human), UniProt P35968)
Sequence (P35968 790-1356): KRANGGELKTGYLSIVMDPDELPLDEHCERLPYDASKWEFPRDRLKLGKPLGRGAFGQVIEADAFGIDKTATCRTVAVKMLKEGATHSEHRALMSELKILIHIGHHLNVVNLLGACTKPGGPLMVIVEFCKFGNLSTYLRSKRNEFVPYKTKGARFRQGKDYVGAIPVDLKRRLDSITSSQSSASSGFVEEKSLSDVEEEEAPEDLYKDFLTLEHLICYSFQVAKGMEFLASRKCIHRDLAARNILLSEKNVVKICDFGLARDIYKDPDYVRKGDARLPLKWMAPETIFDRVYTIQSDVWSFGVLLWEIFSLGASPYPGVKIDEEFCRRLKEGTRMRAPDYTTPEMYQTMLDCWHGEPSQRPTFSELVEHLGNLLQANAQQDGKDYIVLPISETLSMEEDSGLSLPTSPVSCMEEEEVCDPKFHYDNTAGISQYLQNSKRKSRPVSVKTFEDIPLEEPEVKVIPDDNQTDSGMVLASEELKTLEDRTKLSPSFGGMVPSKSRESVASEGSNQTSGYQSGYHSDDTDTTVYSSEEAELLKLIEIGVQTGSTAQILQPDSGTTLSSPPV
Test: Human KDR kinase assay, HTRF KinEase (Example B-2)
Type: biochemical
Conditions: protocol of Example B-2 (other compounds)
pIC50: −log10 of the molar value. Structures can show the parent of a compound that is named as a salt.
Overview of reported pIC50 across a group of compounds:

Any idea what its pIC50 is? The compound is `Cc1nc(C)c(-c2ccc(F)cc2)c(O)c1C(=O)Nc1ccc(Oc2ccnc3ccc(OCCN(C)C)nc23)c(F)c1` 6.52 to 7.00

Any idea what its pIC50 is? The compound is `COc1ccc2nccc(Oc3ccc(NC(=O)c4c(C)ncc(-c5ccc(F)cc5)c4O)cc3F)c2n1` > 7.00

Any idea what its pIC50 is? The compound is `COCCOc1ccc2nccc(Oc3ccc(NC(=O)c4cnc(C)c(-c5ccc(F)cc5)c4O)cc3F)c2n1` 6.52 to 7.00

Any idea what its pIC50 is? The compound is `COc1cnc2c(Oc3ccc(NC(=O)c4ccc(C)n(-c5ccc(F)cc5)c4=O)cc3F)ccnc2c1` > 7.00

Any idea what its pIC50 is? The compound is COc1cc2nccc(Oc3ccc(NC(=O)c4cn(C)cc(-c5ccccc5)c4=O)cc3F)c2nc1OC [Compound 33, hydrochloride] > 7.00

---
Any idea what its pIC50 is? The compound is `COCc1nc(C)c(-c2ccc(F)cc2C)c(O)c1C(=O)Nc1ccc(Oc2ccnc3cc(OC)cnc23)cc1` 6.52 to 7.00

Any idea what its pIC50 is? The compound is `COc1cc2nccc(Oc3ncc(NC(=O)c4cn(C5CC5)cc(-c5ccc(F)cc5)c4=O)cc3F)c2cc1OC` < 6.52

----------
Target: Mer (phospho-Mer, MERTK-transfected 293A cells) (Homo sapiens (Human), UniProt Q12866)
Sequence (Q12866 21-999): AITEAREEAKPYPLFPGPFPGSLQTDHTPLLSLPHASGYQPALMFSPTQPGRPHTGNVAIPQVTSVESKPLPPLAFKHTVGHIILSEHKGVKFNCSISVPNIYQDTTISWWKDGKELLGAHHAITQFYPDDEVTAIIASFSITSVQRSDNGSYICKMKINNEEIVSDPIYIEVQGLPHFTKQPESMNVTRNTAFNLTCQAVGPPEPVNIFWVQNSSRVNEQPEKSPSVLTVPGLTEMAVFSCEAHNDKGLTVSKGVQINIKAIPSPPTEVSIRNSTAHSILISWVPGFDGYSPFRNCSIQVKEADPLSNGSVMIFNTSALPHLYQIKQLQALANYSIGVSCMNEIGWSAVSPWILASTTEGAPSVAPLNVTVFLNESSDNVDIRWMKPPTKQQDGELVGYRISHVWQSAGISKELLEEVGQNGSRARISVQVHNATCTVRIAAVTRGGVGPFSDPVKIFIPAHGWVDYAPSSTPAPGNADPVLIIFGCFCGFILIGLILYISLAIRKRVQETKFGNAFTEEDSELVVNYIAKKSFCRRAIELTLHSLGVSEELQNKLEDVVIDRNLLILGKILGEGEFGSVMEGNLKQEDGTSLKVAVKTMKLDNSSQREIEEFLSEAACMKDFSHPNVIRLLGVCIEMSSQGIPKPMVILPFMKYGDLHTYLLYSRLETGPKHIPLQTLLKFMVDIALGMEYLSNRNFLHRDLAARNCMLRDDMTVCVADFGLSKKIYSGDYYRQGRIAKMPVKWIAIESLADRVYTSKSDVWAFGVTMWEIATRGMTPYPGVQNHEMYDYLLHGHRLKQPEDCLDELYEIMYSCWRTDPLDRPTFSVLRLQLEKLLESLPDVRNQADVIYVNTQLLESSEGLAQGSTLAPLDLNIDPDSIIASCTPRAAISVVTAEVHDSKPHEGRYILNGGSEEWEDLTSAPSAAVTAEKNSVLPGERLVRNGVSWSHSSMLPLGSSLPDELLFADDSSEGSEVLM
Assay: Mer autophosphorylation ELISA in transient transfected 293A cells (Example H)
Format: cell-based
Conditions: cellular activity; Mer autophosphorylation ELISA in transient transfected 293A cells
Structures can show the parent of a compound that is named as a salt.
reported-property: IC50

Answered examples (5):
Any idea what its IC50 is? The molecule is `COc1cc2nccc(Oc3ccc(NC(=O)c4c5c(cn(-c6ccc(F)cc6)c4=O)C(=O)CCC5)cc3)c2nc1OC` < 0.1 µM

Any idea what its IC50 is? The molecule is `COCCOc1cc2nccc(Oc3ccc(NC(=O)c4c(C)nc(C)c(-c5ccc(F)cc5C)c4O)cc3)c2nc1OC` < 0.1 µM

Any idea what its IC50 is? The molecule is `COc1ccc(-c2c(C)nc(C)c(C(=O)Nc3ccc(Oc4ccnc5cc(OC)cnc45)c(F)c3)c2O)c(F)c1` < 0.1 µM

Any idea what its IC50 is? The molecule is `COc1cc2nccc(Oc3ccc(NC(=O)c4cn(C5COC5)cc(-c5ccc(F)cc5)c4=O)cc3F)c2nc1OC` < 0.1 µM

Any idea what its IC50 is? The molecule is `COc1ccc(-c2c(C)nc(C)c(C(=O)Nc3ccc(Oc4ccnc5cc(OC)cnc45)c(F)c3)c2O)c(OC)c1` < 0.1 µM

---
Any idea what its IC50 is? The molecule is `COc1cc2nccc(Oc3ccc(NC(=O)c4c(C)n(CC(F)(F)F)cc(-c5ccc(F)cc5)c4=O)cc3F)c2nc1OC` < 0.1 µM

Any idea what its IC50 is? The molecule is COc1cc2nccc(Oc3ccc(NC(=O)c4cn(C)cc(-c5ccccc5)c4=O)cc3F)c2nc1OC [Compound 33, hydrochloride] < 0.1 µM

Any idea what its IC50 is? The molecule is `COc1ccc2nccc(Oc3ccc(NC(=O)c4c(C)nc(C)c(-c5ccc(F)cc5C)c4O)cc3F)c2n1` < 0.1 µM

Any idea what its IC50 is? The molecule is `COc1cc2nccc(Oc3ccc(NC(=O)c4c(C)c(C(N)=O)c(C)n(-c5ccc(F)cc5)c4=O)cc3F)c2nc1OC` < 0.1 µM

Any idea what its IC50 is? The molecule is `COc1cc2nccc(Oc3ccc(NC(=O)c4n[nH]c(C)c(-c5ccc(F)cc5)c4=O)cc3)c2nc1OC` < 0.1 µM

Any idea what its IC50 is? The molecule is `COc1ccc2nccc(Oc3ccc(NC(=O)c4nnc(C)c(-c5ccc(F)cc5)c4OC)cc3F)c2n1` < 0.1 µM

Any idea what its IC50 is? The molecule is `COc1cc2nccc(Oc3ccc(NC(=O)c4cnc(C)c(-c5ccc(F)cc5C)c4O)cc3F)c2nc1OC` < 0.1 µM

Any idea what its IC50 is? The molecule is `COc1cc2nccc(Oc3ccc(NC(=O)c4cnc(C)c(-c5ccc(F)cc5)c4O)cc3F)c2nc1C` < 0.1 µM

Any idea what its IC50 is? The molecule is `C=Cc1cc2nccc(Oc3ccc(NC(=O)c4cnc(C)c(-c5ccc(F)cc5)c4O)cc3F)c2nc1OC` < 0.1 µM

----------
Target: KDR (phospho-KDR, VEGF165-stimulated HUVEC cells) (Homo sapiens (Human), UniProt P35968)
Sequence (P35968 20-1356): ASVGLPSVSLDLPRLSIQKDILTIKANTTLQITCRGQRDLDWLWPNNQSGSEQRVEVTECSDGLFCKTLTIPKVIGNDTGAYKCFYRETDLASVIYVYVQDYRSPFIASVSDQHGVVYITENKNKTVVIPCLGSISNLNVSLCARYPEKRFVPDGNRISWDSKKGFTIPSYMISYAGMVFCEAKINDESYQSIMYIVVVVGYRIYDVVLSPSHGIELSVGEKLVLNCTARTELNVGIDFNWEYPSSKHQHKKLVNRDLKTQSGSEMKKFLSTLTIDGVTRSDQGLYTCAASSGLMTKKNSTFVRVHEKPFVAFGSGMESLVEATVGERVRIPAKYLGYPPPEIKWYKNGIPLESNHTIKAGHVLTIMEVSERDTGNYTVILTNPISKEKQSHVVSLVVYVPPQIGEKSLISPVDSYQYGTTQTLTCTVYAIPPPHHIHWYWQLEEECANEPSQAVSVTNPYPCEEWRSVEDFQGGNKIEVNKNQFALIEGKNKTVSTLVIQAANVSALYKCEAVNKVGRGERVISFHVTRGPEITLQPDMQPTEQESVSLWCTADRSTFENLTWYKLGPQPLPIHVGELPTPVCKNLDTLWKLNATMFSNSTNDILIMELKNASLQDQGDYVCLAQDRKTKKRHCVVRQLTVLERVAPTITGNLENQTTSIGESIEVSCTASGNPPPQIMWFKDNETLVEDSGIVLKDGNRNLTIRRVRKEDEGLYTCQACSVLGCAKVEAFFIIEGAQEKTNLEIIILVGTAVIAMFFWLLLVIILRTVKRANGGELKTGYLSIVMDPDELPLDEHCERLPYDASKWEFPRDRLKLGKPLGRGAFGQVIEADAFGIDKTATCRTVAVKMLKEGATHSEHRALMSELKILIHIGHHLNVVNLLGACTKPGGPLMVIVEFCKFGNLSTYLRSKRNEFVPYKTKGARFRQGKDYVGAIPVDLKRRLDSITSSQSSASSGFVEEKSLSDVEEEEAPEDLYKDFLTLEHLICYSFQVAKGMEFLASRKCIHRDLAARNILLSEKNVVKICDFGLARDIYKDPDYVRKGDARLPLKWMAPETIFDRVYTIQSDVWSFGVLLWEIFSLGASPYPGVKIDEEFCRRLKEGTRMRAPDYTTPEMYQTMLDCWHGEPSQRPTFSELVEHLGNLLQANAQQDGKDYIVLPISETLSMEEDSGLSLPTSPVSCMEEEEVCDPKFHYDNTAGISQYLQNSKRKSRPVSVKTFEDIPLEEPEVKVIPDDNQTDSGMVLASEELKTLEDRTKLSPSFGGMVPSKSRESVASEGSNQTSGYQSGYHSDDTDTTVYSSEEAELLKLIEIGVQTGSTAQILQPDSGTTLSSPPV
Assay: KDR autophosphorylation ELISA in HUVEC cells (Example G)
Format: cell-based
Details: cellular activity; KDR autophosphorylation ELISA in HUVEC cells
reported-property: IC50

Answered examples (3):
Any idea what its IC50 is? The compound is `COCCOc1nc2c(Oc3ccc(NC(=O)c4cnc(C)c(-c5ccc(F)cc5)c4O)cc3F)ccnc2cc1OC` < 100 nM

Any idea what its IC50 is? The compound is `COc1ccc2nccc(Oc3ccc(NC(=O)c4cn(C)c(CO)c(-c5ccc(F)cc5)c4=O)cc3F)c2n1` > 300 nM

Any idea what its IC50 is? The compound is `COc1cnc2c(Oc3ccc(NC(=O)c4c(C)ncc(-c5ccc(F)cc5C)c4O)cc3F)ccnc2c1` < 100 nM

---
Any idea what its IC50 is? The compound is `CCn1nc(C(=O)Nc2ccc(Oc3ccnc4cc(OC)c(OC)nc34)c(F)c2)c(=O)c(-c2ccc(F)cc2)c1C` < 100 nM

----------
Target: Human KDR (residues 790-1356) (Homo sapiens (Human), UniProt P35968)
Test: Human KDR kinase assay, HTRF KinEase (Example B-2)
Format: biochemical
Conditions: protocol of Example B-2
Overview of reported IC50 across a group of compounds:

Answered examples (2):
Any idea what its IC50 is? The compound is COc1nc2c(Oc3ccc(NC(=O)c4c(C)nc(C)c(-c5ccc(F)cc5)c4O)cc3F)ccnc2cc1C [Compound 459] 100 to 300 nM

Any idea what its IC50 is? The compound is COc1cnc2c(Oc3ccc(NC(=O)c4cn(CCO)c(C)c(-c5ccc(F)cc5)c4=O)cc3F)ccnc2c1 [Compound 621] > 300 nM

---
Any idea what its IC50 is? The compound is Cc1nc(C)c(-c2ccc(F)cc2)c(O)c1C(=O)Nc1ccc(Oc2ccnc3cc(C(C)C)cnc23)cc1 [Compound 598] 100 to 300 nM

Any idea what its IC50 is? The compound is COc1cnc2c(Oc3ccc(NC(=O)c4nn(C)c(C)c(-c5ccc(F)cc5C)c4=O)cc3F)ccnc2c1 [Compound 513] < 100 nM

Any idea what its IC50 is? The compound is C=C(C)c1cnc2c(Oc3ccc(NC(=O)c4c(C)nc(C)c(-c5ccc(F)cc5)c4O)cc3)ccnc2c1 [Compound 455] < 100 nM

Any idea what its IC50 is? The compound is CNc1nc2c(Oc3ccc(NC(=O)c4cn(C(C)C)c(C)c(-c5ccc(F)cc5)c4=O)cc3F)ccnc2cc1OC [Compound 582] < 100 nM
